Quick reference for viability, T/C among some compounds
Test system: PDC KRAS tumor spheroids with HUVEC/MSC, viability
run-description: Anticancer human tumor 349418-098-R-PDC patient-derived lung adenocarcinoma cell line growth inhibition [KRAS2]
measurement-conditions: second compound 0.316 µM; first compound 1 µM; stronger effect = lower value
Only the number, expressed in %, is required.

The cases that follow already have their viability, T/C on record.
# compound, system, numeric-value
measured = [
    ("CCNC(=O)CC1N=C(c2ccc(Cl)cc2)c2cc(OC)ccc2-n2c(C)nnc21 (stereo not given) + C=CC(=O)N1CCN(c2nc(=O)n(-c3c(C)ccnc3C(C)C)c3nc(-c4c(O)cccc4F)c(F)cc23)C(C)C1", "PDC KRAS tumor spheroids with HUVEC/MSC, viability", 11.2),
    ("CC1(C)CCC(CN2CCN(c3ccc(C(=O)NS(=O)(=O)c4ccc(NCC5CCOCC5)c([N+](=O)[O-])c4)c(Oc4cnc5[nH]ccc5c4)c3)CC2)=C(c2ccc(Cl)cc2)C1 + C=CC(=O)N1CCN(c2nc(=O)n(-c3c(C)ccnc3C(C)C)c3nc(-c4c(O)cccc4F)c(F)cc23)C(C)C1", "PDC KRAS tumor spheroids with HUVEC/MSC, viability", 78.7),
    ("COC(=O)c1ccc2c(C(=Nc3ccc(N(C)C(=O)CN4CCN(C)CC4)cc3)c3ccccc3)c(O)[nH]c2c1 + C=CC(=O)N1CCN(c2nc(=O)n(-c3c(C)ccnc3C(C)C)c3nc(-c4c(O)cccc4F)c(F)cc23)C(C)C1", "PDC KRAS tumor spheroids with HUVEC/MSC, viability", 27.9),
    ("Cn1nccc1Nc1nccc(-c2cc3c(s2)C(C)(C)N(CCN2CCOCC2)C3=O)n1 + CC1OCC2(CCN(c3cnc(Sc4ccnc(N)c4Cl)c(N)n3)CC2)C1N", "PDC KRAS tumor spheroids with HUVEC/MSC, viability", 6.49),
]

Attention now shifts to the item below.
Query: Name the recorded viability, T/C of the compound listed here: COc1cc2nccc(Oc3ccc(NC(=O)C4(C(=O)Nc5ccc(F)cc5)CC4)cc3)c2cc1OC + CC1OCC2(CCN(c3cnc(Sc4ccnc(N)c4Cl)c(N)n3)CC2)C1N
Result: 79.1

###

Readings of viability, T/C for the listed compounds
Tested on: PDC KRAS tumor spheroids with HUVEC/MSC, viability
run-description: Anticancer human tumor 349418-098-R-PDC cell line growth inhibition [KRAS2];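 also: spheroids exposed to compounds for seven days before readout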
measurement-conditions: second compound 3.16 µM; first compound 0.1 µM; stronger effect = lower value
Number in %, nothing else.

Example cases with answers are listed next.
# compound, system, viability, T/C (%)
rows = [
    ("COc1cc2nccc(Oc3ccc(NC(=O)C4(C(=O)Nc5ccc(F)cc5)CC4)cc3)c2cc1OC + C=CC(=O)N1CCN(c2nc(OCC3CCCN3C)nc3c2CCN(c2cccc4cccc(C)c24)C3)CC1CC#N", "PDC KRAS tumor spheroids with HUVEC/MSC, viability", 0.28),
    ("COc1cc(Nc2ncc3c(n2)-c2ccc(Cl)cc2C(c2c(F)cccc2OC)=NC3)ccc1C(=O)O + C=CC(=O)N1CCN(c2nc(OCC3CCCN3C)nc3c2CCN(c2cccc4cccc(C)c24)C3)CC1CC#N", "PDC KRAS tumor spheroids with HUVEC/MSC, viability", 0.09),
    ("CCNC(=O)CC1N=C(c2ccc(Cl)cc2)c2cc(OC)ccc2-n2c(C)nnc21 (stereo unspecified) + C=CC(=O)N1CCN(c2nc(=O)n(-c3c(C)ccnc3C(C)C)c3nc(-c4c(O)cccc4F)c(F)cc23)C(C)C1", "PDC KRAS tumor spheroids with HUVEC/MSC, viability", 52.9),
    ("COc1cc2nccc(Oc3ccc(NC(=O)C4(C(=O)Nc5ccc(F)cc5)CC4)cc3)c2cc1OC + CC1OCC2(CCN(c3cnc(Sc4ccnc(N)c4Cl)c(N)n3)CC2)C1N", "PDC KRAS tumor spheroids with HUVEC/MSC, viability", 99.7),
    ("CC(C)n1nc(-c2ccc3oc(N)nc3c2)c2c(N)ncnc21 + COc1cc2nc(C)nc(NC(C)c3cc(N)cc(C(F)(F)F)c3)c2cc1OC1CCOC1", "PDC KRAS tumor spheroids with HUVEC/MSC, viability", 7.6),
    ("CC1COCCN1c1cc(-c2ccnn2C)c2ccnc(-c3ccn[nH]3)c2n1 (stereo unspecified) + CNCc1ccccc1-c1csc(C(C)Nc2nc(C)nc3cc(OC)c(OC)cc23)c1", "PDC KRAS tumor spheroids with HUVEC/MSC, viability", 0.12),
    ("COc1cc2nccc(Oc3ccc(NC(=O)C4(C(=O)Nc5ccc(F)cc5)CC4)cc3)c2cc1OC + C=CC(=O)N1CCN(c2nc(=O)n(-c3c(C)ccnc3C(C)C)c3nc(-c4c(O)cccc4F)c(F)cc23)C(C)C1", "PDC KRAS tumor spheroids with HUVEC/MSC, viability", 64.5),
    ("Cn1ncnc1[C@H]1c2n[nH]c(=O)c3cc(F)cc(c23)N[C@@H]1c1ccc(F)cc1 + CC1OCC2(CCN(c3cnc(Sc4ccnc(N)c4Cl)c(N)n3)CC2)C1N", "PDC KRAS tumor spheroids with HUVEC/MSC, viability", 74.2),
]

Query: Answer with the recorded viability, T/C for the compound listed here: CC(=O)OC12COC1CC(O)C1(C)C(=O)C(O)C3=C(C)C(OC(=O)C(O)C(NC(=O)OC(C)(C)C)c4ccccc4)CC(O)(C(OC(=O)c4ccccc4)C21)C3(C)C (stereo unspecified) + C=CC(=O)N1CCN(c2nc(=O)n(-c3c(C)ccnc3C(C)C)c3nc(-c4c(O)cccc4F)c(F)cc23)C(C)C1
Result: 13.4

Query: Give viability, T/C for CC(C)n1nc(-c2ccc3oc(N)nc3c2)c2c(N)ncnc21 + CNCc1ccccc1-c1csc(C(C)Nc2nc(C)nc3cc(OC)c(OC)cc23)c1
Result: 0.13

Query: Please indicate viability, T/C recorded for CC1OCC2(CCN(c3cnc(Sc4ccnc(N)c4Cl)c(N)n3)CC2)C1N (stereo unspecified) + C=CC(=O)N1CCN(c2nc(OCC3CCCN3C)nc3c2CCN(c2cccc4cccc(C)c24)C3)CC1CC#N
Result: 0.15
